READOUT KIND: glass transition temperature (°C)

compound="*c1ccc2c(c1)C(=O)N(c1cc(C(c3ccc(OC(=O)C45CC6CC(CC(C6)C4)C5)c(N4C(=O)c5ccc(C(*)(C(F)(F)F)C(F)(F)F)cc5C4=O)c3)(C(F)(F)F)C(F)(F)F)ccc1OC(=O)C13CC4CC(CC(C4)C1)C3)C2=O (repeat unit)" readout_kind="glass transition temperature" unit_name=°C measured_result=305.00
compound="*SSc1ccc(/N=C/Nc2ccc(*)cc2)cc1 (repeat unit)" readout_kind="glass transition temperature" unit_name=°C measured_result=98.00
compound="*/C=C/c1ccc(/C=C/c2ccc3c(c2)Sc2cc(*)ccc2N3c2ccc(OCCCCCCCCCCCC)cc2)s1 (repeat unit)" readout_kind="glass transition temperature" unit_name=°C measured_result=155.00
compound="*c1ccc(Oc2ccc(C(=O)c3ccc(Cc4ccc(C(=O)c5ccc(Oc6ccc(-c7nc(-c8ccccc8)[nH]c7*)cc6)cc5)cc4)cc3)cc2)cc1 (repeat unit)" readout_kind="glass transition temperature" unit_name=°C measured_result=231.00
compound="*CC(*)(C)C(=O)OCCCCCCOc1ccc(OC(=O)c2ccc(OC)c(Br)c2)cc1 (repeat unit)" readout_kind="glass transition temperature" unit_name=°C measured_result=51.00
compound="*CC(*)OC (repeat unit)" readout_kind="glass transition temperature" unit_name=°C measured_result=-26.97
compound="*c1cc(-c2sc(-c3cc(CCCC)c(*)s3)cc2CCCC)c2cccccc1-2 (repeat unit)" readout_kind="glass transition temperature" unit_name=°C measured_result=124.00
